System Tested: MyD88^TIR (Homo sapiens)
Construct: MyD88 (residues 148–296); 6xHis; made in house; host or cells: E. coli BL21 (DE3)
Run Description: T‐Surf phage library (P8 and P3) selection against MyD88^TIR, four rounds, NGS read counts
Format: binding
Assay Setup: P8 library, 4R selection against MyD88, rank before grouping
Lab note: anything with P8_MyD88 Rank (before) at or over 3000 counts as yes (1); the rest go in no (0).

Data request: // inclusive: P8_MyD88 Rank (before) at least 3000? input: LGYHWIDWEYFVGIEDPIT
Data returned: yes (1)

Data request: // inclusive: P8_MyD88 Rank (before) at least 3000? input: VQWDDPWFWDKLAY
Data returned: no (0)

Data request: // inclusive: P8_MyD88 Rank (before) at least 3000? input: DPQDLDWFYERREPA
Data returned: no (0)

Data request: // inclusive: P8_MyD88 Rank (before) at least 3000? input: DWVWDYLLPKLECPSG
Data returned: no (0)

Data request: // inclusive: P8_MyD88 Rank (before) at least 3000? input: PQDLDWFYDRLVSLIL
Data returned: yes (1)

* * *

System Tested: MyD88^TIR (Homo sapiens, UniProt Q99836)
Construct: MyD88 (residues 148–296); 6xHis; made in house; host or cells: E. coli BL21 (DE3)
Sequence (Q99836 148-296): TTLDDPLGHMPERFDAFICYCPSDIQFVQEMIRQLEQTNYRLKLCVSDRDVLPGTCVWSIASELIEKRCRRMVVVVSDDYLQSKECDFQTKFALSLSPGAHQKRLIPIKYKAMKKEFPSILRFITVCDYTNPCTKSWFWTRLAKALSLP
Run Description: T‐Surf phage library (P8 and P3) selection against MyD88^TIR, four rounds, NGS read counts
Assay type: binding
Assay Setup: P8_MyD88: rank by count after grouping
Item-by-item account of Rank (after)
Just the number, please.

WALDELLQILYARERF	448

Data request: Consider the sequence LGYHWTDWEYFVGIEA and give its measured Rank (after).
Data returned: 429

Data request: Consider the sequence FIDFLFDAFETKGIFV and give its measured Rank (after).
Data returned: 103

Data request: Consider the sequence NFVEYFVYQMMPDILE and give its measured Rank (after).
Data returned: 153

Data request: Consider the sequence WGQAVTEDLWGWLFNP and give its measured Rank (after).
Data returned: 176

Data request: Consider the sequence SWAVDELLKILQAWDE and give its measured Rank (after).
Data returned: 137

Data request: Consider the sequence WALDLQWFYERLVSLI and give its measured Rank (after).
Data returned: 480

Data request: Consider the sequence DYASSTWWLRELLYA and give its measured Rank (after).
Data returned: 434

Data request: Consider the sequence HYTDSYFALHELALLL and give its measured Rank (after).
Data returned: 128

Data request: Consider the sequence YASSSWALEELVKIMEAM and give its measured Rank (after).
Data returned: 454

Data request: Consider the sequence LADALERYGIMFIIDK and give its measured Rank (after).
Data returned: 184

* * *

System Tested: MyD88^TIR (Homo sapiens, UniProt Q99836)
Construct: MyD88 (residues 148–296); 6xHis; made in house; host or cells: E. coli BL21 (DE3)
Run Description: T‐Surf phage library (P8 and P3) selection against MyD88^TIR, four rounds, NGS read counts
Format: binding
Assay Setup: P8 library, 4R selection against MyD88, rank after grouping
Item-by-item account of P8_MyD88 Rank (after)
Just the number, please.

Field: example entries. Status: answers known.
MFGGDPLHDFLDLISL	592
YAASPWWFYERVEILG	612
DPQLLVCFYERLVSLF	640
DPQDLHGIYERLVILF	666
DYASSWWALDELLRILY	650
WAQDALLKILYAKETM	614

Data request: Consider the sequence LVYHWIDWVYFVGIED and give its measured P8_MyD88 Rank (after).
Data returned: 659

Data request: Consider the sequence WALDELLTILYAKETM and give its measured P8_MyD88 Rank (after).
Data returned: 608

* * *

Item-by-item account of P3_MyD88 Rank (after)
System Tested: MyD88^TIR (Homo sapiens, UniProt Q99836)
Construct: MyD88 (residues 148–296); 6xHis; made in house; host or cells: E. coli BL21 (DE3)
Run Description: T‐Surf phage library (P8 and P3) selection against MyD88^TIR, four rounds, NGS read counts
Type: binding
Assay Setup: P3 library, selection against MyD88, rank after grouping
Just the number, please.

Field: example entries. Status: answers known.
LSRVPSVHEFRGFVGV	573
LKWGDPAYRLALHYRDFN	500
DHHLDLPRGKAIQPDILG	554
SSFREGLWRLLELSKLRYAM	517
DHHLDLPRGKANKPEILD	555
YAFTGHLRKQSGEFG	486
EWIREQFRRALKERLP	503
HPWRNTLTAAANLNGR	546

Below: the item to evaluate.
Data request: Consider the sequence QLIQQWIELHLHQLHL and give its measured P3_MyD88 Rank (after).
Data returned: 499

* * *

System Tested: MAL^TIR (Homo sapiens, UniProt P58753)
Construct: MAL (residues 79–221); 6xHis; made in house; host or cells: E. coli BL21 (DE3)
Sequence (P58753 79-221): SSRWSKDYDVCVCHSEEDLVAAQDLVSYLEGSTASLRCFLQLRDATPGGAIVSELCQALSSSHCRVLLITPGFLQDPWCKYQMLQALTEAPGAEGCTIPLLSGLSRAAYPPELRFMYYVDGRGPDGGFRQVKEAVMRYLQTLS
Run Description: T‐Surf phage library (P8 and P3) selection against MAL^TIR, four rounds, NGS read counts
Format: binding
Assay Setup: P3 library, 4R selection against MAL, rank before grouping
Procedure: T‐Surf libraries were screened against the immobilized TIR domains of two major human TLR adaptor proteins, MAL^TIR and MyD88^TIR, allowing cross‐species selection of TIR‐binding motifs with 190 946 TIR‐derived peptides in a single binding assay (Scheme 1). Enriched phage pools from the fourth round of selection were analyzed using NGS after barcoding the peptide‐coding regions of the phage pools. […]
Measured Metric: P3_MAL Rank (before)
Just the number, please.

Field: example entries. Status: answers known.
YNLISQLYEALHLNRI	1587
WFWVKLLYALTYRPGI	1227
KEVEGWRDALTKWRA	3567
HQALWALMWAKHQTPI	2894
KEVEGWRDALTQAAN	3565
RGFLYQAFAREGFKIFM	2353
PNLRTKELIYLMRTKT	2738
RGYLRHVRHHLQAKDH	2426

Data request: Reported P3_MAL Rank (before) for MAL^TIR (Homo sapiens, UniProt P58753), given YLKLGYPWCWDRRRFA ?
Data returned: 1500

* * *

System Tested: MAL^TIR (Homo sapiens)
Construct: MAL (residues 79–221); 6xHis; made in house; host or cells: E. coli BL21 (DE3)
Run Description: T‐Surf phage library (P8 and P3) selection against MAL^TIR, four rounds, NGS read counts
Assay type: binding
Assay Setup: P3 library, selection against MAL, rank after grouping
Item-by-item account of P3_MAL Rank (after)
Just the number, please.

Field: example entries. Status: answers known.
RLLKCTEALHQFHNWV	566
SNLRPKVLNYLMRTKI	531
SSFREGLWRWRELRKK	504
YAFTGHLHRYLQAKDH	496
SLRKNLLSNLIEECKR	495
KEVEGWRDALTKVANLSGW	565

Data request: Consider the sequence SFFWSKLSYHLPAPQH and give its measured P3_MAL Rank (after).
Data returned: 559

Data request: Consider the sequence WRCLNFVPRCIMCCR and give its measured P3_MAL Rank (after).
Data returned: 482

Data request: Consider the sequence CVYRPSASLSGAAWR and give its measured P3_MAL Rank (after).
Data returned: 568

Data request: Consider the sequence LNGAIRIFGANCVMR and give its measured P3_MAL Rank (after).
Data returned: 534

Data request: Consider the sequence RPLKWKEALHQFHSRV and give its measured P3_MAL Rank (after).
Data returned: 493

Data request: Consider the sequence PNLRTQVQNYLLPNKT and give its measured P3_MAL Rank (after).
Data returned: 524

* * *

System Tested: MAL^TIR (Homo sapiens, UniProt P58753)
Construct: MAL (residues 79–221); 6xHis; made in house; host or cells: E. coli BL21 (DE3)
Run Description: T‐Surf phage library (P8 and P3) selection against MAL^TIR, four rounds, NGS read counts
Type: binding
Assay Setup: P3_MAL: rank by count before grouping
Returns the class for an entry based on its Rank (before). Class ranges: low band (below 400), middle band (400 to below 2000), high band (2000 or more)

Data request: Consider GFLSHLRHHLQAKDH . To which Rank (before) class does it belong?
Data returned: low band

Data request: Consider MSHLYQGLKNRGIFT . To which Rank (before) class does it belong?
Data returned: low band

Data request: Consider LQNQWKLALTKVANLSGW . To which Rank (before) class does it belong?
Data returned: low band

Data request: Consider PKLRTKVLKYQMRTKT . To which Rank (before) class does it belong?
Data returned: high band

Data request: Consider YTALTKSGVHAFRDND . To which Rank (before) class does it belong?
Data returned: middle band

Data request: Consider YFLHFLLFSRPETEYI . To which Rank (before) class does it belong?
Data returned: middle band

Data request: Consider YAFTAICIVIWCSVA . To which Rank (before) class does it belong?
Data returned: middle band
